Item-by-item account of pEC50
- system: WT/R232 STING protein (Homo sapiens, UniProt Q86WV6, H232R)
- Sequence (Q86WV6 whole entry H232R): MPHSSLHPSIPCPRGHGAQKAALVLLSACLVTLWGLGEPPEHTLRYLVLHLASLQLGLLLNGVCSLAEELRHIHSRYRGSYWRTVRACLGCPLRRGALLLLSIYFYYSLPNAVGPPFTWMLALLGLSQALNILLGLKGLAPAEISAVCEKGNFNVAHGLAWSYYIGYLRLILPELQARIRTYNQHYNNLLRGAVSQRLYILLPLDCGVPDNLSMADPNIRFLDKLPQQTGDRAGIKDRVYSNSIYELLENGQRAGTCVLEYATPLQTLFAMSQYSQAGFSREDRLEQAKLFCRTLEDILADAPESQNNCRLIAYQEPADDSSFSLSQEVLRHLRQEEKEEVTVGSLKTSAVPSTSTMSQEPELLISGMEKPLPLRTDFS
- assay.explanation: Luciferase reporter assay in HEK293T-hSTING-Luciferase cells (R232)
- condition.info: 20 hr stimulation, EC50 range
pEC50: −log10 of the molar value.

Example results:
CC1(Cl)C(=O)N(Cc2cc(F)cc(F)c2)c2cc(C(=O)NCc3c(F)cc(F)cc3F)ccc21 (stereo not shown) [Example 147] :: ≥ 6.00
Cc1ccc(CNC(=O)c2ccc3c(c2)N(Cc2c(F)cccc2F)C(=O)C3(C)C)o1 [Example 50] :: 5.00 to 6.00
Cc1cc(CN2C(=O)C(C)(C)c3ccc(C(=O)NCc4ccc(C)o4)cc32)ccn1 [Example 55] :: < 5.00

Task: pEC50 lookup needed for CC1(C)C(=O)N(Cc2ccc(F)c(F)c2)c2cc(C(=O)NCc3ccco3)ccc21 [Example 46] , thanks.
Output: 5.00 to 6.00
